subject of test: glucagon receptor (human, UniProt P47871 26-477)
Sequence (P47871 26-477): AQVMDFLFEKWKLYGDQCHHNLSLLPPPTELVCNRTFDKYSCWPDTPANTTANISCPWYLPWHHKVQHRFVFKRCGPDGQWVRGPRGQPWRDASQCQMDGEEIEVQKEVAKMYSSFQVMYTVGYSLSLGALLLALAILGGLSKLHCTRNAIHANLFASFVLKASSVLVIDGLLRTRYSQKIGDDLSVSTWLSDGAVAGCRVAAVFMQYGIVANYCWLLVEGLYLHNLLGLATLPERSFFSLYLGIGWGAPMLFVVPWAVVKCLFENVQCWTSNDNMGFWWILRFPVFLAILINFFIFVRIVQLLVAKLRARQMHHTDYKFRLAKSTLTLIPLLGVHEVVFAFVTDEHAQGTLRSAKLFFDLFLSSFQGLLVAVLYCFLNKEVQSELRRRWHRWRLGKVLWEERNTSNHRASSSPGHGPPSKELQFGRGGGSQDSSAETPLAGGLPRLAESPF
protocol: cell-based or functional assay
Non-standard residues stand in square brackets, D forms with d. No end group written: not given here. Aib = CC(C)(N)C(=O)O
The following binders are shown together with reported EC50 (cAMP luciferase reporter) values.
Report the value in nM with no unit label.

Known EC50 (cAMP luciferase reporter) results, listed for orientation:
binder	endpoint unit	EC50 (cAMP luciferase reporter)
H[Aib]QGTFTSDYSKYLDEQAAKEFIAWLMNT-NH2 [Glucagon Analog D]	nM	0.85
HSQGTFTSDYSKYLDEQAAKEFIAWLMNT-NH2 (not fully specified (residue 2)) [Glucagon Analog B]	nM	0.072
HSQGTFTSDYSKYLDEEAVRLFIEWLMNT-NH2 (not fully specified (residue 2)) [Glucagon Analog A]	nM	0.061

--- query ---
Bench note: what EC50 (cAMP luciferase reporter) did H[Aib]QGTFTSDYSKYLDEEAVRLFIEWLMNT-NH2 [Glucagon Analog C] show?
0.17

Reference source for all entries: patent US20120288511A1
